Sourced from patent US20220089727A1

# Measurement target: T1, human CD47-linker peptide-hIgG1Fc (human)
# T1 construct: also called Human CD47-hFc; human CD47-hFc
# Procedure details: competition ELISA: human CD47-hFc coated, blocked ligand human SIRP-his
Quantity kind: IC50 (read off the curve)

response.value for 059-1.82.1 (antibody, mouse IgG3, V domains shown) VH: EVQLQQSGPELVKPGASVKMSCKASGYTFTNYVMHWVKQKPGQGLEWIGYINPYNDGTNYNEKFKGKATLTSDKSSSTAYMELSSLTSEDSAVYYCAKGGWFSMDYWGQGTSVTVSS VL: DVVMTQTPLSLPVSLGDQASISCRSSQSLVHSNGKTYLQWYLQKPGQSPKLLIYKVSNRFSGVPDRFSGSGSGTDFTLKISRVEAEDLGVYFCSQSTHVYTFGGGTKLEIK (field: IC50 (read off the curve)) = ~1 µg/mL
